Attribution: ChEMBL document CHEMBL3988442

System: Tyrosyl-tRNA synthetase, putative (Trypanosoma cruzi (strain CL Brener))
Method: Trypanosoma cruzi tyrosyl tRNA synthetase (TcYRS) _High Tyrosine SOP; also: in the data most compounds retested in dose-response had high values
Format: functional
Parameters: scale not given: direction of the effect not stated beside the values
Applied conditions: 30 µM

Molecule	Value units	Percent Effect
Cc1nc(CO[C@@H]2CN(Cc3cnn(C)c3)[C@@H]3COC[C@@H]32)cs1	%	3.12
O=C(NC1CC1)[C@@H]1CCO[C@@H]2CCN(Cc3ccsc3)C[C@H]21	%	0
O=c1cc(CN2CCCC(CCc3c(F)cccc3F)C2)[nH]c(=O)[nH]1 (centres undefined)	%	10.1
O=c1[nH]c(CN(Cc2ccco2)C2CCCC2)nc2ccccc12	%	8.74
CC(C)CC1SCC(=O)Nc2c1cnn2C(C)C (centres undefined)	%	7.41
COC(C(=O)N1CCN(c2cccc(Cl)c2)C(=O)C1)c1ccccc1 (centres undefined)	%	3.7
Cc1nn(C)c(C)c1C1COCCN1c1ncnc2sccc12 (centres undefined)	%	1.64
COCCN(Cc1ccc(F)cc1Cl)C(=O)c1ccc(=O)[nH]n1	%	2.1
Cc1n[nH]c(C)c1NC(=O)CN1CCc2c(nc(C3CC3)n2C)C1	%	3.88
CC(C)Nc1nc(N2CCCC2)nc2c1CN(C(C)C)CC2	%	5.21
Cc1cc(CN(Cc2cccs2)CC2CCCO2)no1 (centres undefined)	%	-5.21
COCCN1CC[C@H](O)[C@@H]1Cc1ccccc1	%	5.29
Cc1cnn(CC2CCCN2C(=O)CCc2ccsc2)c1 (centres undefined)	%	1.91
O=S(=O)(Cc1ccccc1)N1CCCn2cnc(CN3CCCC3)c2C1	%	6.25
Cc1nc(N2CCCCC2)ncc1-c1cc(O)[nH]n1	%	5.29
Cc1nc(CN2C[C@@H]3CN(C(=O)c4cccn4C)C[C@@H]3C2=O)cs1	%	3.24
CCOc1cc(CN(C)CCOC)ccc1OC(F)F	%	0
Cc1csc(NC(=O)CN2CCC(c3ccnn3CCO)CC2)n1	%	8.37
COc1cnc(N2CCC(Oc3ccccc3OC)(C(=O)O)CC2)nc1	%	5.21
CCc1nc(C2CCCN2C(=O)CCNS(C)(=O)=O)no1 (centres undefined)	%	7.92
O=C(CSC1=NS(=O)(=O)c2cc(F)ccc2N1)c1ccc(Cl)cc1	%	4.23
COCc1nc2cc(NCc3ccc(C)o3)ccc2o1	%	13.9
c1cnn(CCNCc2nnc(C3CC3)o2)c1	%	7.39
O=C(NCCCN1CCOCC1)c1cc(-c2ccco2)[nH]n1	%	11.5

* * *

System: Protein translocase subunit SecA (Escherichia coli (strain K12)) (UniProt P10408)
Sequence (P10408 whole entry): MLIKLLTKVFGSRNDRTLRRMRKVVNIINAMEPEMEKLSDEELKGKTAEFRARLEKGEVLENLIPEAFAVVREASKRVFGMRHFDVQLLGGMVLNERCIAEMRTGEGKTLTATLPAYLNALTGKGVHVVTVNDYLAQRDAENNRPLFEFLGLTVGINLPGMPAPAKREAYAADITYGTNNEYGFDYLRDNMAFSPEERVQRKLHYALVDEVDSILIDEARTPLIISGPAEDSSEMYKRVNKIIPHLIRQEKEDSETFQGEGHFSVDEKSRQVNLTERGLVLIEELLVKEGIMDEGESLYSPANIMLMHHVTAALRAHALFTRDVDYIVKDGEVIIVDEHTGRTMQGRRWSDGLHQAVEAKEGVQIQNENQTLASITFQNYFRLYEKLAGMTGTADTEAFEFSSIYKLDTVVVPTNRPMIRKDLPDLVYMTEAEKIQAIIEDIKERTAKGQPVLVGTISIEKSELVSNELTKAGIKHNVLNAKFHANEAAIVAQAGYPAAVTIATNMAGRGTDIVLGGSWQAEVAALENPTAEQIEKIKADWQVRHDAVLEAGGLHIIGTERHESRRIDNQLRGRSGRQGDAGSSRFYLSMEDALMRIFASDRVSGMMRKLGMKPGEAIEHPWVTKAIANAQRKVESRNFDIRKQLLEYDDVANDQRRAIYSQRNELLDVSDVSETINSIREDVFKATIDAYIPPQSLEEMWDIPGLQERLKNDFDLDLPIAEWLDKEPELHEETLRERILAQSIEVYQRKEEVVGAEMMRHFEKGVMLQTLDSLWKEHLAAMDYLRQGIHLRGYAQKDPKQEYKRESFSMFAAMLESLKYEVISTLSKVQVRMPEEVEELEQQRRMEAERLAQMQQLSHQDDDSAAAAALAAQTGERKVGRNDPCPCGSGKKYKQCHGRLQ
Method: Assay to Identify E. coli SecA ATPase Inhibitors
Format: functional
Set-up: scale not given: direction of the effect not stated beside the values
Applied conditions: 30 µM
Potency and affinity values are given separately.

Compound	System	Percent Effect / %
Cc1c(C2CCCN(C(=O)C3CC3)C2)n2c(nc1=O)CCC2 (configuration not stated)	Protein translocase subunit SecA (Escherichia coli (strain K12)) (UniProt P10408)	-7.83
CNS(=O)(=O)Cc1ccc(CNC(=O)c2ccc(C)[nH]c2=O)cc1	Protein translocase subunit SecA (Escherichia coli (strain K12)) (UniProt P10408)	-4.48
Cc1ccc(C(=O)N(C)Cc2cc(Br)cs2)c(=O)[nH]1	Protein translocase subunit SecA (Escherichia coli (strain K12)) (UniProt P10408)	1.09
CN(C)C(=O)CO[C@@H]1CC[C@H]2[C@H]1OCCN2C(=O)C1CCOCC1	Protein translocase subunit SecA (Escherichia coli (strain K12)) (UniProt P10408)	-1.1
O=C(NS(=O)(=O)c1cc(Cl)sc1Cl)c1cccc2c1OCCO2	Protein translocase subunit SecA (Escherichia coli (strain K12)) (UniProt P10408)	-8.74
O=C(c1ccc(C2CCCO2)s1)N1Cc2ccccc2C1 (configuration not stated)	Protein translocase subunit SecA (Escherichia coli (strain K12)) (UniProt P10408)	-2.89
CN(C)C(=O)C1CN(Cc2c[nH]cn2)CCN(C2CCOCC2)C1 (configuration not stated)	Protein translocase subunit SecA (Escherichia coli (strain K12)) (UniProt P10408)	-7.04
CCc1csc(C2CCCN(C(=O)c3ccc(OC)nn3)C2)n1 (configuration not stated)	Protein translocase subunit SecA (Escherichia coli (strain K12)) (UniProt P10408)	-6.61
CS(=O)(=O)NCc1cn2c(n1)CN(C(=O)c1ccc[nH]1)CC2	Protein translocase subunit SecA (Escherichia coli (strain K12)) (UniProt P10408)	-5.06
Cc1nn(C)c(N2CCOCC2)c1CNCc1ccc(Cl)s1	Protein translocase subunit SecA (Escherichia coli (strain K12)) (UniProt P10408)	-3.24
CC(c1nc(C2CC2)no1)N1CCN(c2ccc(C#N)cn2)CC1 (configuration not stated)	Protein translocase subunit SecA (Escherichia coli (strain K12)) (UniProt P10408)	0.926
CCc1noc(CN2CCCC2c2noc(C3CC3)n2)n1 (configuration not stated)	Protein translocase subunit SecA (Escherichia coli (strain K12)) (UniProt P10408)	0.214
CC(C)c1ncc2c(n1)CN(Cc1nc(-c3cccs3)no1)CC2	Protein translocase subunit SecA (Escherichia coli (strain K12)) (UniProt P10408)	-1.45
CCN1CCN(C(=O)c2ccn(C)c(=O)c2)CC1	Protein translocase subunit SecA (Escherichia coli (strain K12)) (UniProt P10408)	-1.02
Cc1csc(CNC(=O)NC2CCN(c3ncccn3)CC2)n1	Protein translocase subunit SecA (Escherichia coli (strain K12)) (UniProt P10408)	-4.13
CC(=O)N1CCCC1C(=O)NCCOc1cc(C)cc(C)c1 (configuration not stated)	Protein translocase subunit SecA (Escherichia coli (strain K12)) (UniProt P10408)	-7.33
CN1CCN(C(=O)c2cnc3c(cnn3C3CCCC3)c2)CC1	Protein translocase subunit SecA (Escherichia coli (strain K12)) (UniProt P10408)	-5.03
CC(C)Cc1cc(NC(=O)c2ccc(=O)[nH]n2)n(C)n1	Protein translocase subunit SecA (Escherichia coli (strain K12)) (UniProt P10408)	-8.11
CC[C@H](C)[C@H](NC(=O)c1ccccc1-n1cnnn1)C(=O)OC	Protein translocase subunit SecA (Escherichia coli (strain K12)) (UniProt P10408)	-2.24
CN(C)C(=O)N1CCN(CCn2nc3ccccn3c2=O)CC1	Protein translocase subunit SecA (Escherichia coli (strain K12)) (UniProt P10408)	0.243
CCC1=N[C@@]2(CC[C@@H]3CN(CC(=O)N(C)C)C[C@@H]32)C(=O)N1CC1CC1	Protein translocase subunit SecA (Escherichia coli (strain K12)) (UniProt P10408)	-0.889
Cc1cc(C(=O)N2C[C@@H]3[C@@H](C2)OCC(=O)N3CC2CC2)no1	Protein translocase subunit SecA (Escherichia coli (strain K12)) (UniProt P10408)	-1.71
CCC(C)NC(=O)NCCCn1nc2ccccn2c1=O (configuration not stated)	Protein translocase subunit SecA (Escherichia coli (strain K12)) (UniProt P10408)	-2.08
Cc1nc(C)n(CC2CCCN(Cc3nnc(C(C)(C)C)o3)C2)n1 (configuration not stated)	Protein translocase subunit SecA (Escherichia coli (strain K12)) (UniProt P10408)	-3.5
CC1=Nc2c(c(=O)[nH]n2C2CCCC2)C(c2cccc(O)c2)S1 (configuration not stated)	Protein translocase subunit SecA (Escherichia coli (strain K12)) (UniProt P10408)	-2.38
O=C(NCc1cccnc1)C1=NN(c2ccccc2)C(=O)CN1	Protein translocase subunit SecA (Escherichia coli (strain K12)) (UniProt P10408)	-0.966
Cc1ncc2c(n1)CCN(C(=O)Cc1c(C)noc1C)C2	Protein translocase subunit SecA (Escherichia coli (strain K12)) (UniProt P10408)	-8.55
c1ccc2cc(OCCN3CCOC(Cn4cncn4)C3)ccc2c1 (configuration not stated)	Protein translocase subunit SecA (Escherichia coli (strain K12)) (UniProt P10408)	-4.49
COCC(=O)NC1CC2(CCN(Cc3ccco3)CC2)c2ccccc21 (configuration not stated)	Protein translocase subunit SecA (Escherichia coli (strain K12)) (UniProt P10408)	-1.45
O=C(CCc1cscn1)NS(=O)(=O)c1ccc2ccccc2c1	Protein translocase subunit SecA (Escherichia coli (strain K12)) (UniProt P10408)	-4.59
CC(C)N1CC(C(=O)NCCOc2ccc3c(c2)OCO3)CC1=O (configuration not stated)	Protein translocase subunit SecA (Escherichia coli (strain K12)) (UniProt P10408)	0.716
CCc1ccccc1C(=O)N1CCN(S(C)(=O)=O)[C@@H](C)C1	Protein translocase subunit SecA (Escherichia coli (strain K12)) (UniProt P10408)	2.08
COCc1ccccc1C(=O)N1CCCC(n2nc(C)cc2C)C1 (configuration not stated)	Protein translocase subunit SecA (Escherichia coli (strain K12)) (UniProt P10408)	-3.82
Cc1cnn(C2CCCN(C(=O)CCCNc3ncccn3)C2)c1 (configuration not stated)	Protein translocase subunit SecA (Escherichia coli (strain K12)) (UniProt P10408)	0.326
COc1cccc(CC(=O)N2CCc3ncnc(NC(C)C)c3CC2)c1	Protein translocase subunit SecA (Escherichia coli (strain K12)) (UniProt P10408)	-5.16
CN(C)C(=O)CN1C[C@@H]2CC[C@H](C1)N(C(=O)CCn1cncn1)C2	Protein translocase subunit SecA (Escherichia coli (strain K12)) (UniProt P10408)	-2.58
NC(=O)Nc1cccc(Oc2ccccn2)c1	Protein translocase subunit SecA (Escherichia coli (strain K12)) (UniProt P10408)	-0.17
Cc1cc(C2CCCN(CCc3ccccn3)C2)n[nH]1 (configuration not stated)	Protein translocase subunit SecA (Escherichia coli (strain K12)) (UniProt P10408)	-4.83
COCc1noc(-c2ccc(N(C)Cc3cc(C)no3)nc2)n1	Protein translocase subunit SecA (Escherichia coli (strain K12)) (UniProt P10408)	-1.27
COc1cc(/C=C/c2ncc(C(=O)O)s2)cc(Cl)c1O	Protein translocase subunit SecA (Escherichia coli (strain K12)) (UniProt P10408)	3.12
Cn1cc(C[C@H]2[C@H](O)CCN2CC2CC2)cn1	Protein translocase subunit SecA (Escherichia coli (strain K12)) (UniProt P10408)	-2.02
CNc1cncc(C2CCCN2C(=O)c2ccc3oc(=O)n(C)c3c2)n1 (configuration not stated)	Protein translocase subunit SecA (Escherichia coli (strain K12)) (UniProt P10408)	-2.39
Cn1cc(CC2CCN(C(=O)NCCc3cccc(O)c3)C2)cn1 (configuration not stated)	Protein translocase subunit SecA (Escherichia coli (strain K12)) (UniProt P10408)	-1.93
CCNC(=O)c1ccc2c(c1)nc1n2CCN(Cc2ccco2)C1	Protein translocase subunit SecA (Escherichia coli (strain K12)) (UniProt P10408)	-1.58
O=C(NC1CCC1)[C@@H]1CCO[C@@H]2CCN(CCc3ccccc3)C[C@H]21	Protein translocase subunit SecA (Escherichia coli (strain K12)) (UniProt P10408)	-2.5
Cc1ccc(C(=O)NS(=O)(=O)c2ccccc2C)c(=O)[nH]1	Protein translocase subunit SecA (Escherichia coli (strain K12)) (UniProt P10408)	-3.76
COc1ccc(NC(=O)CCC2CCCN(Cc3ncon3)C2)c(C)c1 (configuration not stated)	Protein translocase subunit SecA (Escherichia coli (strain K12)) (UniProt P10408)	-3.42
